target: T1, cynomolgus PD-L1-His (Sino Biological, Cat. 90251-C08H) (cynomolgus, UniProt Q9NZQ7 19-238 (human entry)); assay: BLI (Gator), cynomolgus PD-L1
T1 construct: Bought protein; also called Cyno PD-L1; Cynomolgus PD-L1 ECD-His; not shown: His tag
T1 sequence (Q9NZQ7 other isoform, or with tags, fused parts or gaps C08H C08H limits assumed): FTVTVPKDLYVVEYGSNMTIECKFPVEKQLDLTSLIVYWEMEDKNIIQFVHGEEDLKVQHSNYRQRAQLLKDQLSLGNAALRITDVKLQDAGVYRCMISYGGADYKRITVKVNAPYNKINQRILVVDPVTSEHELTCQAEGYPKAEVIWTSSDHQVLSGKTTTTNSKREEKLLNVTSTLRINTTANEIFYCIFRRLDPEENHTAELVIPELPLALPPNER
metricName: koff (s⁻¹)
# value in s⁻¹; strip the unit string

So for 57B10 (antibody, human IgG1, V domains shown) VH: QEQLEESGGGLVQPEGSLTLTCTASGFSFSDDYYMSWVRQAPGKGLEWIASIYTGSLNTYYATWAKGRFTISLTSSTTVTLQMTSLTAADTATYFCARRNKNADWGHFDLWGPGTLVTVSS VL: YDMTQTPASVEVAVGGTVTIKCQASQSISTALAWYQQKPGQPPKLLIYAASTLASGVPSRFRGSGSGTDFTLTISDLECADAATYYCQQGWTVSSLDNAFGGGTEVVAM , the logged koff turned out to be 7e-06
